assay: chemical genetic growth profiling, strain panel (AID 1159580);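 further: tested at 20 µM; growth read once vehicle control cultures reached saturation at 30 °C; 1 = growth at the plate median or of vehicle wells; lower values mean less growth of the strain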; conditions: S. cerevisiae deletion strains, growth OD, locus YIL125W, strain kgd1
Out of some 5,500 compounds screened, about 2,000 (36%) were called active. Another 18% or so got no clear call; they are omitted. No stated cut-off is given here; in the data, active means normalized growth mostly below about 0.91 (no sharp cut-off); inconclusive means no clear call, values can overlap the other calls; inactive means mostly above about 0.92. The list shows a part of the results.
Result category, one only: active, inactive

Example entries and their recorded answers appear below.
CNC(=O)O/N=C\C(C)(C)SC	inactive
C#C[C@]1(O)CCC2C3CCC4=CC(=O)CC[C@@H]4C3CC[C@@]21CC (some centres not stated)	inactive
OC(CCN1CCCC1)(c1ccccc1)C1CCCCC1 (configuration not stated)	inactive
N#CC(O[C@@H]1O[C@H](CO[C@@H]2O[C@H](CO)[C@@H](O)[C@H](O)[C@H]2O)[C@@H](O)[C@H](O)[C@H]1O)c1ccccc1 (some centres not stated)	inactive
Fc1ccc(C(c2ccccc2)(c2ccccc2F)n2ccnc2)cc1 (configuration not stated)	active

# outcome recorded in this test, key = `O=c1cc(CO)occ1O` inactive

# outcome recorded in this test, key = `N[C@H](C(=O)O)[C@@H]1CC(Cl)=NO1` active

# outcome recorded in this test, key = `Cc1cn([C@H]2C[C@H](N=[N+]=[N-])[C@@H](CO)O2)c(=O)[nH]c1=O` inactive

====

assay: chemical genetic growth profiling, strain panel (AID 1159580);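 further: tested at 20 µM; growth read once vehicle control cultures reached saturation at 30 °C; 1 = growth at the plate median or of vehicle wells; lower values mean less growth of the strain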; conditions: S. cerevisiae deletion strains, growth OD, locus YDL074C, strain BRE1, active compounds read low
About 2,000 (36%) of roughly 5,500 compounds were called active. Another 18% or so got no clear call; they are omitted. This is one part of the list. Where a SMILES comes first, the peptide text is derived from it. Bridges are numbered along the chain shown (N, C = ends). [ ]: non-standard residue; d: D form. The star is where a group is joined. ξ: configuration not given here. ξDab(CH2SO3H) = NC(CCNCS(=O)(=O)O)C(=O)O; Heptanoyl(6-Me) = CC(C)CCCCC(=O)*; Dab = NCC[CH](N)C(=O)O; For = O=C*
normalized growth overview
Returns: the value as a bare number; no unit string appended.

COc1ccc2[nH]cc(CCN)c2c1	0.999
CC1(C)CC[C@]2(C)CC[C@]3(C)C(=CCC4[C@@]5(C)CC[C@H](O)C(C)(C)C5CC[C@]43C)C2C1 (stereo partly drawn)	1.02
CCC(C)C1NC(=O)C(CCNCS(=O)(=O)O)NC(=O)C(NC(=O)C(CCNCS(=O)(=O)O)NC(=O)C(NC(=O)C(CCNCS(=O)(=O)O)NC(=O)CCCCC(C)C)C(C)O)CCNC(=O)C(C(C)O)NC(=O)C(CCNCS(=O)(=O)O)NC(=O)C(CCNCS(=O)(=O)O)NC(=O)C(C(C)CC)NC1=O (stereo not drawn) ({Heptanoyl(6-Me)}-[ξDab(CH2SO3H)]T[ξDab(CH2SO3H)][Dab][ξDab(CH2SO3H)]II[ξDab(CH2SO3H)][ξDab(CH2SO3H)]T; lactam 4-C; configuration not given here)	1
NNc1nncc2ccccc12	0.997
C/C=C1\[C@H]2C=C(C)C[C@]1(N)c1ccc(=O)[nH]c1C2	1.01

Name the reported normalized growth value associated with the molecule CC(C)=CCCC1(C)C=Cc2c(O)c3c(c(CC=C(C)C)c2O1)OC12C(CC4CC1C(C)(C)OC2(C/C=C(/C)C(=O)O)C4O)C3=O (stereo not drawn) 1.01

Name the reported normalized growth value associated with the molecule `Cc1ccnc(NS(=O)(=O)c2ccc(N)cc2)n1` 0.978

Name the reported normalized growth value associated with the molecule CSCCC(NC=O)C(=O)NC(Cc1ccccc1)C(=O)O (stereo not drawn) (For-Met-Phe-OH; configuration not given here) 1.02
